Molecular target: CREB1 (Homo sapiens)
Construct: made in house
Sequence (P16220 269-327 limits assumed): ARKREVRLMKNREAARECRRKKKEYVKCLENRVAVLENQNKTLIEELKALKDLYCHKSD
Assay: Direct-binding FRET assay
Settings: 4°C; C-terminal fluorescein design as donor, TAMRA target titrated
pKd: −log10 of the molar value. Where no end group is shown, it is not given here.
RECORDED ENDPOINT: pKd

Query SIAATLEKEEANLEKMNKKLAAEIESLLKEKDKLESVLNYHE [JUN-d1] on CREB1 (Homo sapiens); pKd returned: < 6.00

###

target: FOS (Homo sapiens, UniProt P01100); test: Direct-binding FRET assay; parameters: made in house; conditions: 37°C; C-terminal fluorescein design as donor, TAMRA target titrated
Sequence (P01100 137-200 limits assumed): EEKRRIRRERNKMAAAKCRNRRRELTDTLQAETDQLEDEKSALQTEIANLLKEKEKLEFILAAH
pKd: −log10 of the molar value. Where no end group is shown, it is not given here.
RECORDED ENDPOINT: pKd

The recorded pKd with FOS (Homo sapiens, UniProt P01100) for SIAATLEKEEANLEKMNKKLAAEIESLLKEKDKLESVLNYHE [JUN-d1] was < 6.00

###

target: ATF6B (Homo sapiens, UniProt Q99941); test: Direct-binding FRET assay; set-up: made in house; settings: 37°C; C-terminal rhodamine design; repeat 2; read-out: Kd
Sequence (Q99941 325-388 limits assumed): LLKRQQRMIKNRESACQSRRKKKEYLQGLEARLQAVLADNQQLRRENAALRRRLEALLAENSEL
Where no end group is shown, it is not given here.
RECORDED ENDPOINT: Kd

>>> readout_value("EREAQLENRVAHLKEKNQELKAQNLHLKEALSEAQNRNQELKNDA [XBP1-d1]")
"> 1000 nM"

Form: sequence = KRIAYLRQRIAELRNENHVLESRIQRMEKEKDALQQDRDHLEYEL [ATF5-d1] ; Kd = > 5000 nM

###

Molecular target: NFE2L2 (Homo sapiens, UniProt Q16236)
Construct: made in house
Sequence (Q16236 497-560 limits assumed): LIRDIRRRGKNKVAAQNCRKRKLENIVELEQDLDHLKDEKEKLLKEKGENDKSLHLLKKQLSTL
Assay: Direct-binding FRET assay
Details: 37°C; C-terminal rhodamine design; repeat 1; read-out: Kd
Where no end group is shown, it is not given here.
RECORDED ENDPOINT: Kd

For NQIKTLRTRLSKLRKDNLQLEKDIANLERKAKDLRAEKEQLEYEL [ATF4-d1] the sequence record lists Kd as > 1000 nM

###

Molecular target: ATF5 (Homo sapiens)
Construct: made in house
Sequence (Q9Y2D1 208-271 limits assumed): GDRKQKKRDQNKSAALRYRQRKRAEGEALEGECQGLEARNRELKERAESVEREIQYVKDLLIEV
Assay: Direct-binding FRET assay
Settings: 37°C; N-terminal rhodamine design; repeat 2; read-out: Kd
Experimental: The direct binding assay was performed manually in 384-well plates and is similar to a previously described assay. Wells were filled with 20 μL of 1 mM TCEP-HCl. […] Briefly, the Kd of the designed peptide homodimer was experimentally determined and used with previously determined target homodimer Kd values to determine the heterodimer Kd. […] A minimum 15% change in the donor fluorescence upon titrating the acceptor peptide from 0 to 1000 nM was required for a fit to be attempted. […]
Where no end group is shown, it is not given here.
In this section we review reported Kd values for a set of sequences.

>>> readout_value("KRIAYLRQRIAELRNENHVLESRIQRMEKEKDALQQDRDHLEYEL [ATF5-d1]")
"> 1 µM"

The sequence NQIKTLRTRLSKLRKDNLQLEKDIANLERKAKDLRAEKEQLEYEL [ATF4-d1] on ATF5 (Homo sapiens): Kd was > 1 µM
